# assayNotes: Population PK
# Assay type: in vivo, human
# assayContext: human, plasma, oral, 30 mg, Median week 16 apremilast exposure (AUCτ,ss) derived from the PPK model, 30 mg b.i.d., all subjects
reportedProperty: AUC (ng·h/mL)
The figure you give is taken to be in ng·h/mL; do not add the unit.

# input compound: CCOc1cc([C@@H](CS(C)(=O)=O)N2C(=O)c3cccc(NC(C)=O)c3C2=O)ccc1OC [apremilast] ; wanted: its AUC 3170

###

# Format: in vivo, human
# assayContext: human, plasma, oral, 20 mg, Tmax, Japanese subjects, 20 mg b.i.d., week 20, n = 21; median (minimum, maximum)
reportedProperty: Tmax

# input compound: "CCOc1cc([C@@H](CS(C)(=O)=O)N2C(=O)c3cccc(NC(C)=O)c3C2=O)ccc1OC" ; wanted: its Tmax ~2 h

###

# Format: in vivo, human
# assayContext: human, plasma, oral, 20 mg
reportedProperty: Cmax (ng/mL)
The figure you give is taken to be in ng/mL; do not add the unit.

# input molecule: CCOc1cc([C@@H](CS(C)(=O)=O)N2C(=O)c3cccc(NC(C)=O)c3C2=O)ccc1OC [apremilast] ; wanted: its Cmax 304

###

# Type: in vivo, human
# assayContext: human, plasma, oral, 30 mg
reportedProperty: AUC(0-t)
The answer should read as a number with its unit following.

# input molecule: "CCOc1cc([C@@H](CS(C)(=O)=O)N2C(=O)c3cccc(NC(C)=O)c3C2=O)ccc1OC" ; wanted: its AUC(0-t) 1970 ng·h/mL

###

# Type: in vivo, human
# assayContext: human, plasma, oral, 30 mg
reportedProperty: AUC (ng·h/mL)
The figure you give is taken to be in ng·h/mL; do not add the unit.

# input compound: "CCOc1cc([C@@H](CS(C)(=O)=O)N2C(=O)c3cccc(NC(C)=O)c3C2=O)ccc1OC" ; wanted: its AUC 2400

###

# assayNotes: Population PK
# Type: in vivo, human
# assayContext: human, plasma, oral, 20 mg, Median week 16 apremilast exposure (AUCτ,ss) derived from the PPK model, 20 mg b.i.d., all subjects
reportedProperty: AUC (ng·h/mL)
The figure you give is taken to be in ng·h/mL; do not add the unit.

# input molecule: "CCOc1cc([C@@H](CS(C)(=O)=O)N2C(=O)c3cccc(NC(C)=O)c3C2=O)ccc1OC" ; wanted: its AUC 2030

###

# Type: in vivo, human
# assayContext: human, plasma, oral, 30 mg, Tmax, Japanese subjects, 30 mg b.i.d., week 20, n = 20; median (minimum, maximum)
reportedProperty: Tmax

# input molecule: "CCOc1cc([C@@H](CS(C)(=O)=O)N2C(=O)c3cccc(NC(C)=O)c3C2=O)ccc1OC" ; wanted: its Tmax ~2 h

###

# Type: in vivo, human
# assayContext: human, plasma, oral, 30 mg
reportedProperty: Vd/F (L)
The figure you give is taken to be in L; do not add the unit.

# input compound: "CCOc1cc([C@@H](CS(C)(=O)=O)N2C(=O)c3cccc(NC(C)=O)c3C2=O)ccc1OC" ; wanted: its Vd/F 83.1

###

# Assay type: in vivo, human
# assayContext: human, plasma, oral, 30 mg
reportedProperty: half-life (h)
The figure you give is taken to be in h; do not add the unit.

# input compound: "CCOc1cc([C@@H](CS(C)(=O)=O)N2C(=O)c3cccc(NC(C)=O)c3C2=O)ccc1OC" ; wanted: its half-life 4.06

###

# Assay type: in vivo, human
# assayContext: human, plasma, oral, 20 mg
reportedProperty: Vd/F (L)
The figure you give is taken to be in L; do not add the unit.

# input molecule: "CCOc1cc([C@@H](CS(C)(=O)=O)N2C(=O)c3cccc(NC(C)=O)c3C2=O)ccc1OC" ; wanted: its Vd/F 68
